# study-target: SMARCA2 (Homo sapiens, UniProt P51531)
# Sequence (P51531 whole entry): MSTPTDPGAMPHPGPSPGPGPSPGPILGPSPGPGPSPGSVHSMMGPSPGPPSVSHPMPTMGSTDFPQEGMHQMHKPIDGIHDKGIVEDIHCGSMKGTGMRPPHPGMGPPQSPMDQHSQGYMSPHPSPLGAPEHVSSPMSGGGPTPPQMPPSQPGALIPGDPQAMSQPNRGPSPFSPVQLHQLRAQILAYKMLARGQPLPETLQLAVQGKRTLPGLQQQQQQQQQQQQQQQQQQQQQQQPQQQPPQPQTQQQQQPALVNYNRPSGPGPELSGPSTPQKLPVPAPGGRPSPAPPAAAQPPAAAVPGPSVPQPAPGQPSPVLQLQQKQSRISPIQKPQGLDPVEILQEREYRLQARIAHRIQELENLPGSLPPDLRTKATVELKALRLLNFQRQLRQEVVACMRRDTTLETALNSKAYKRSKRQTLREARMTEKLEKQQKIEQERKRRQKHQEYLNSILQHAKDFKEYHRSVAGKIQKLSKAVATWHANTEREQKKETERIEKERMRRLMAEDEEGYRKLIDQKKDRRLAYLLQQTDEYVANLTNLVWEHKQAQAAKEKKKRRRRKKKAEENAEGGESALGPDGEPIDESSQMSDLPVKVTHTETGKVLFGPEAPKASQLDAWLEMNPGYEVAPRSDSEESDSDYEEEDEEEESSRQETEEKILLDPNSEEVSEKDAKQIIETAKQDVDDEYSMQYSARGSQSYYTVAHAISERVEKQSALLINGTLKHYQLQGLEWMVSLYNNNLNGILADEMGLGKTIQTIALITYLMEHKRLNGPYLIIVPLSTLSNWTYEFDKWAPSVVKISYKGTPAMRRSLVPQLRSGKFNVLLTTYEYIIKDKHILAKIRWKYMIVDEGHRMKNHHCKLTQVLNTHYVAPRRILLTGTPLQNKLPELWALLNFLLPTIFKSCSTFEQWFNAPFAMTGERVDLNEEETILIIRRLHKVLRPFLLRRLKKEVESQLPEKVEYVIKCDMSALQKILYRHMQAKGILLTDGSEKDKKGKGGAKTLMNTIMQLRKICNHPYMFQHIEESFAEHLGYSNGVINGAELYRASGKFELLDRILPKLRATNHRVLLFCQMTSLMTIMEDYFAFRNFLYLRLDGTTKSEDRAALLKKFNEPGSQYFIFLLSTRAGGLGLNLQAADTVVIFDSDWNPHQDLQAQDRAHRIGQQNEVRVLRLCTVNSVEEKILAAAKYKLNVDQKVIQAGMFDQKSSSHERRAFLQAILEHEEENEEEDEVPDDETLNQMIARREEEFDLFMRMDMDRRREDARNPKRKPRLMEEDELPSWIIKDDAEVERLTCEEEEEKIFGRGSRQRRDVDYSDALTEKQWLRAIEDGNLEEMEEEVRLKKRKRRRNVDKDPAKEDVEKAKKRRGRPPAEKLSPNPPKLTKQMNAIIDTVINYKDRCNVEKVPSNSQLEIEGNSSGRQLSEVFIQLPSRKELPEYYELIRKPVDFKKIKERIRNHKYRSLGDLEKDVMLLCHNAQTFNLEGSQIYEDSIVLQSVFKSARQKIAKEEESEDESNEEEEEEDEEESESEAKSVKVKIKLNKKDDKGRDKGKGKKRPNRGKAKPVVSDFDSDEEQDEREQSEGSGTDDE
# assay-overview: HiBit assay in engineered HT1080 CRISPR knock-in cell, 6 hrs (B series), SMARCA2
# Assay type: cell-based
# condition-parameters: HT-1080, HT1080 CRISPR knock-in cells, 6 hrs incubation; read-out: SMARC A2 HT1080 HiBit Dmax (%)
test-readout: Dmax

Please look up its Dmax: Cc1ncsc1-c1ccc([C@H](C)NC(=O)[C@@H]2C[C@@H](O)CN2C(=O)[C@H](C(C)C)n2cc(C3CCN(CCCN4CCC(c5ccc6c(c5)-n5c(nc(=O)c7c(Cl)cccc75)C6(C)C)CC4)CC3)nn2)cc1 [Compound B66] > 90%

Form field: reported Dmax of Cc1ncsc1-c1ccc([C@H](C)NC(=O)[C@@H]2C[C@@H](O)CN2C(=O)[C@@H](c2cc(N3CCC(C(=O)N4CCC(c5ccc6c(c5)C(C)(C)c5nc(=O)c7c(Cl)cccc7n5-6)CC4)CC3)no2)C(C)C)cc1 [Compound B90] > 90%

// lookup Dmax for CC(C)[C@@H](C(=O)N1C[C@H](O)C[C@H]1C(=O)N[C@@H](C)c1ccc(-c2scnc2C#CCN2CCOCC2)cc1)n1cc([C@H]2CC[C@H](CN3CCN(c4ccc5c(c4)-n4c(nc(=O)c6c(Cl)cccc64)C5(C)C)CC3)CC2)nn1 [Compound B136] > 90%

# lookup: Dmax of Cc1ncsc1-c1ccc2c(c1)CCC[C@H]2NC(=O)[C@@H]1C[C@@H](O)CN1C(=O)[C@@H](n1cc([C@H]2CC[C@H](CN3CCC(c4ccc5c(c4)-n4c(nc(=O)c6c(Cl)cccc64)C5(C)C)CC3)CC2)nn1)C(C)(C)C [Compound B151] > 90%

Entry Cc1ncsc1-c1ccc([C@H](CN2CCOCC2)NC(=O)[C@@H]2C[C@@H](O)CN2C(=O)[C@@H](n2cc([C@H]3CC[C@H](CN4CCC(c5ccc6c(c5)-n5c(nc(=O)c7c(Br)cccc75)C65CCCCC5)CC4)CC3)nn2)C(C)(C)C)cc1 [Compound B112] has what Dmax? > 90%
